test: NCI Yeast Anticancer Drug Screen. Data for the sgs1 mgt1 strain (AID 161);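 also: 0% = growth of cultures given vehicle only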; conditions: S. cerevisiae sgs1 mgt1 strain, at 50.0 µM, stronger effect = higher value
The panel holds about 79,000 compounds, 15% with a hit somewhere; the sample as a whole holds those more often. Activity calls are given as the source filed them. Rule as the data show it: active = growth inhibition above about 70%; inactive = the rest.
ENDPOINT_LABEL: growth inhibition

Record excerpt, results attached:
- COMPOUND: "CC(=O)NC(Cc1ccccc1)/C(C)=N\\O (stereo unspecified)"
  ENDPOINT_LABEL: "growth inhibition"
  RESULT: "-2.65% (inactive)"
- COMPOUND: "O=C(Nc1ccc(Cl)c(Cl)c1)Oc1ccc(Cl)cc1C(=O)Nc1ccccc1"
  ENDPOINT_LABEL: "growth inhibition"
  RESULT: "29.1% (inactive)"
- COMPOUND: "O=C(NNC(=O)Nc1ccccc1)Nc1ccccc1"
  ENDPOINT_LABEL: "growth inhibition"
  RESULT: "-0.95% (inactive)"
- COMPOUND: "Cc1ccc(-c2cnc3c(n2)c(=O)[nH]c(=O)n3C)cc1"
  ENDPOINT_LABEL: "growth inhibition"
  RESULT: "20.5% (inactive)"
- COMPOUND: "O=C(NC1CCC(CC2CCCCC2)CC1)c1ccccc1 (stereo unspecified)"
  ENDPOINT_LABEL: "growth inhibition"
  RESULT: "-7.65% (inactive)"

Please examine the following record next.
Problem: State its growth inhibition for this compound: "O=C(c1ccccc1)c1cc[n+]([O-])cc1"
Result: -18% (inactive)

----------
assay: NCI Yeast Anticancer Drug Screen. Data for the mlh1 rad18 strain (AID 175); conditions: S. cerevisiae mlh1 rad18 strain growth inhibition; at 50.0 µM; stronger effect = higher value
The panel holds about 79,000 compounds, 15% with a hit somewhere; the sample as a whole holds those more often.
ENDPOINT_LABEL: growth inhibition (%)
Numbers only, in %.

Here is how some compounds turned out for growth inhibition.
- COMPOUND: "C[N+]1(C)C2CC(=O)CC1C1CC12 (stereo unspecified)"
  growth inhibition [%]: -16
- COMPOUND: "CN(C)CCC(=O)c1ccc(C(=O)CCN(C)C)cc1"
  growth inhibition [%]: -21.2
- COMPOUND: "COc1ccc(NC(=O)c2cc3cc(N=Nc4ccc(Br)cc4)ccc3oc2=O)cc1"
  growth inhibition [%]: -17.6
- COMPOUND: "CCC(=O)NC(Nc1cccc(F)c1C)(C(F)(F)F)C(F)(F)F"
  growth inhibition [%]: -5.5
- COMPOUND: "O=C(c1ccccc1)c1oc2ccc(Br)cc2c1-c1cnn(-c2ccccc2)c1"
  growth inhibition [%]: 22.1

Batch lookup, growth inhibition per entry.
1. Cc1ccc2nc(N/N=C/c3sccc3C)cc(C)c2c1
2. Cc1cccc2c1C1c3ccccc3C(=O)CC1CC2=O (stereo unspecified)

Result:
1. -21.4
2. 35.2

Can you give me growth inhibition for all of these, one by one?
1. Clc1ccccc1C(Nc1ncccn1)Nc1ncccn1
2. CN(C)CCC(c1ccccc1)c1ccccc1
3. Cc1ccc(C)c(NC(=O)OC/C=C/c2ccccc2)c1
4. CSc1nc2cc(C)c(C)cc2[nH]1
5. S=C1N=C(Cl)/C(=C\c2ccccc2)N1
6. O=c1[nH]nc(-c2ccccc2)c2c1[nH]c1ccccc12
7. Cc1cc(S(N)(=O)=O)c(SCc2nc(N)nc(N(C)C)n2)cc1Cl
8. CCCCC(CC)(CC(=O)O)CC(=O)O

Result:
13.1
-5.8
41.2
-6.85
-14.4
-12.1
7.8
7.1

----------
assay: NCI Yeast Anticancer Drug Screen. Data for the sgs1 mgt1 strain (AID 161);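 also: 0% = growth of cultures given vehicle only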; settings: S. cerevisiae sgs1 mgt1 strain, at 50.0 µM, stronger effect = higher value
This is part of a sample that, as a whole, favours compounds with a hit. Of some 79,000 tested, about 15% had one in any assay.
Please respond with reported growth inhibition for every item in the list.
Give bare numbers, in %.

Solved cases below.
- MOLECULE: "Cc1nc2c(=O)[nH]c(N)nc2[nH]c1=O"
  NUMERIC_READOUT: -6.15
- MOLECULE: "O=c1ccc(O)c[nH]1"
  NUMERIC_READOUT: 34.7
- MOLECULE: "COc1ccc(/C=C/C(=O)CC(=O)/C=C/c2ccc(OC)cc2)cc1"
  NUMERIC_READOUT: 7.65
- MOLECULE: "CC1=CC(O)C(C(O)(C(F)(F)F)C(F)(F)F)C(C)(C)C1 (stereo unspecified)"
  NUMERIC_READOUT: -9.95
- MOLECULE: "CCn1cc(C(=O)O)c(=O)c2ccc(-c3ccncc3)cc21"
  NUMERIC_READOUT: 5.75

Problem: Recall and state the measured growth inhibition for O=C1CC2[C@@H](N3CCCC3)CCC(N1Cc1ccccc1)C2(O)O (stereo partly specified) .
Result: 1.2

----------
Assignment: determine reported growth inhibition for the given molecules.
test: NCI Yeast Anticancer Drug Screen. Data for the bub3 strain (AID 167); details: S. cerevisiae bub3 mutant strain, at 50.0 µM, stronger effect = higher value
About 79,000 compounds went through this panel and 15% of them were active in at least one assay; those are over-represented in the sample as a whole.
Answers are plain numbers, in %.

- MOLECULE: "CN(C)c1ccc(C=C(C(=O)c2ccccc2)C(=O)c2ccccc2)cc1"
  MEASUREMENT_UNITS: "%"
  growth inhibition: 20.1
- MOLECULE: "CCOC1Oc2ccccc2-c2nc(C)c(C#N)cc21 (centres undefined)"
  MEASUREMENT_UNITS: "%"
  growth inhibition: 15.8
- MOLECULE: "O=C1CN(C=C2C(=O)NC(=O)NC2=O)C(=S)N1"
  MEASUREMENT_UNITS: "%"
  growth inhibition: -22.3
- MOLECULE: "COc1ccccc1CCCO"
  MEASUREMENT_UNITS: "%"
  growth inhibition: 10.1
- MOLECULE: "Nc1nc(N)c(Nc2ccc(Cl)cc2)c(Cl)n1"
  MEASUREMENT_UNITS: "%"
  growth inhibition: 40.9
- MOLECULE: "C(=Nc1cccc2ccccc12)Nc1cccc2ccccc12"
  MEASUREMENT_UNITS: "%"
  growth inhibition: -48.8

Hi, could you look up growth inhibition for each item in my list?
1. CCc1nc(N)nc(C(=O)NCCNC(=O)c2nc(N)nc(CC)c2C)c1C
2. COc1ccccc1OCc1nnc(SCC(=O)O)n1-c1ccccc1
3. CSc1nc2cc(C)c(C)cc2[nH]1
4. CSC1NC(c2ccccc2)=C(C#N)C(=O)N1C1OCC(OC(C)=O)C(OC(C)=O)C1OC(C)=O (centres undefined)
5. COc1ccc2c(c1)OC[C@@H]1c3cc(O)c(OCc4ccccc4)cc3O[C@]21C
6. CC1(C)C2=CCCC(=O)[C@@]2(C)CC[C@@H]1O
7. O=C(CCN1CCCC1)c1ccc2ccccc2c1

Result:
1. -13.4
2. 8.4
3. 15.1
4. 3.4
5. 21.7
6. 1.55
7. 59.4

Kindly give each listed record's growth inhibition.
1. Cc1cc(C(c2ccccc2)c2cc(C)cc(C(C)(C)CC(C)(C)C)c2O)c(O)c(C(C)(C)CC(C)(C)C)c1
2. CCCCCCOC(=O)c1ccccc1Cl
3. O=C1CC(CC(=O)c2ccc(Br)cc2)C(=O)/C1=C(/O)c1ccc(Br)cc1 (centres undefined)

Result:
1: 5.2; 2: 26.4; 3: 22.9

----------
experiment: NCI Yeast Anticancer Drug Screen. Data for the mec2-1 strain (AID 157); settings: S. cerevisiae mec2-1 strain, at 50.0 µM, stronger effect = higher value
Compounds without any hit were thinned out: in the full panel of roughly 79,000, 15% have a hit. Calls of active or inactive are those of the source. Cut-off read from the data, not from the text of the source: active = growth inhibition above about 70%; inactive = the rest.
Consider the following compounds; for each one, report its growth inhibition.

Recorded growth inhibition, per entry:
- COMPOUND: "C(=Nc1ccc(N2CCOCC2)cc1)c1ccc2c(c1)OCO2"
  ENDPOINT_LABEL: "growth inhibition"
  RESULT: "-7% (inactive)"
- COMPOUND: "O=C(O)CCC(NC(=O)/C(=C/c1ccccc1)NC(=O)c1ccccc1)C(=O)O (configuration not stated)"
  ENDPOINT_LABEL: "growth inhibition"
  RESULT: "6.55% (inactive)"
- COMPOUND: "O=C(O)Cc1cc(I)c(Oc2ccc(O)cc2)c(I)c1"
  ENDPOINT_LABEL: "growth inhibition"
  RESULT: "-29.4% (inactive)"
- COMPOUND: "NC(=S)N/N=C/c1ccc(OC(F)(F)F)cn1"
  ENDPOINT_LABEL: "growth inhibition"
  RESULT: "28.1% (inactive)"
- COMPOUND: "COC(=O)C12CCC(C(=O)OC)(CC1)n1c(=O)n(-c3ccccc3)c(=O)n12"
  ENDPOINT_LABEL: "growth inhibition"
  RESULT: "-5.15% (inactive)"
- COMPOUND: "Cc1ccc(Oc2ccc(C(=O)c3cccc(C(=O)c4ccc(Oc5ccc(C)cc5)cc4)n3)cc2)cc1"
  ENDPOINT_LABEL: "growth inhibition"
  RESULT: "2.05% (inactive)"
- COMPOUND: "CC(C)(C)OC(=O)NC(CC(N)=O)C(=O)O (configuration not stated)"
  ENDPOINT_LABEL: "growth inhibition"
  RESULT: "-6% (inactive)"
- COMPOUND: "c1ccc2c(c1)C1C3c4ccccc4C1C1C2C31"
  ENDPOINT_LABEL: "growth inhibition"
  RESULT: "12.1% (inactive)"
- COMPOUND: "C=CCC(C)C(=O)NNC(=O)C(C)CC=C (configuration not stated)"
  ENDPOINT_LABEL: "growth inhibition"
  RESULT: "-9.15% (inactive)"
- COMPOUND: "CCN(C(=S)Nc1cccc2ccccc12)c1ccccc1"
  ENDPOINT_LABEL: "growth inhibition"
  RESULT: "-11.3% (inactive)"

Each compound below has a recorded value; state its growth inhibition.
1. O=C1OC([C@H](O)c2cccnc2)c2ccccc21 (some centres not stated)
2. CCOC(=O)Nc1ccc(Cl)cc1Cl

Result:
-24.9% (inactive)
-8.2% (inactive)

Reference for the values: PubChem BioAssay (NCI)
